Recorded PBM binding z-score, one value per entry.
system: THRa:RXRa (NR concentration 90 nM, RXRa partner concentration 90 nM); assay: PBM binding z-score (relative to random genomic background probes); higher = stronger binding; sequences stand for … in GC…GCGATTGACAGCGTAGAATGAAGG

PRIMARY SEQUENCE: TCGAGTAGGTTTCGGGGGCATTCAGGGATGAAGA
PBM binding z-score: 3.54

PRIMARY SEQUENCE: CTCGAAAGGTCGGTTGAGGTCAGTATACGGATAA
PBM binding z-score: 5.26

PRIMARY SEQUENCE: TAGCCTAGGTCATTCAGGGGGCAGTATAGAAAGC
PBM binding z-score: 3.8

PRIMARY SEQUENCE: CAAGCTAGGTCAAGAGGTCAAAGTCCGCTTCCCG
PBM binding z-score: 4.31

PRIMARY SEQUENCE: TTACCGAGGTGAAAGGTCGTTGATGCACGCCTTG
PBM binding z-score: 3.7

PRIMARY SEQUENCE: CCTAGTTGGCCAAGGTCACACACGCTATAGGTAC
PBM binding z-score: 3.96

PRIMARY SEQUENCE: GCTTCCGGGTCAAAGGTTATAGCATGAATAGAAT
PBM binding z-score: 4.61

PRIMARY SEQUENCE: CCTTACGGGTCAAGGTTATCGCACGGGTGGTACG
PBM binding z-score: 3.15

PRIMARY SEQUENCE: CTCGAAAGGTCGTGCTCAGGTGAGTATGCCAAAC
PBM binding z-score: 4.11

PRIMARY SEQUENCE: CGAAATAGGTCACCAGGACAGTGAAGAGGTTGGA
PBM binding z-score: 3.12

PRIMARY SEQUENCE: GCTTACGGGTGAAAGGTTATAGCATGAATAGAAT
PBM binding z-score: 2.2

PRIMARY SEQUENCE: ATATGTAGGTTAGGGTCATTCAAAAAGTAGGGAA
PBM binding z-score: 4.28

====

system: LXRa homodimer (NR concentration 270 nM); assay: PBM binding z-score (relative to random genomic background probes); higher = stronger binding; sequences stand for … in GC…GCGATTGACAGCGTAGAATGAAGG

PRIMARY SEQUENCE: TCGAGTACGTTACGGGGGCATTCAGGGATGAAGA
PBM binding z-score: -0.186
//
PRIMARY SEQUENCE: TCGAGTAGGTTACGTGGGCATTCAGGGATGAAGA
PBM binding z-score: -0.386
//
PRIMARY SEQUENCE: CCTTACGGGTCAAGGTTATATCACGGGTGGTACG
PBM binding z-score: 0.787
//
PRIMARY SEQUENCE: ATCTGTAGGTTATCGGGTCATTCAGTTTGCGCAT
PBM binding z-score: 2.79
//
PRIMARY SEQUENCE: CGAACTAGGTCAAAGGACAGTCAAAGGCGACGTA
PBM binding z-score: -0.061
//
PRIMARY SEQUENCE: ATCGAAATGTCGTGAGGTGAGTATACAGAAAGGC
PBM binding z-score: -0.191

====

test system: RARb:RXRa (NR concentration 270 nM, RXRa partner concentration 90 nM); test: PBM binding z-score (relative to random genomic background probes); higher = stronger binding; sequences stand for … in GC…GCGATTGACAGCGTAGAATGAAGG

PRIMARY SEQUENCE: CGAACTAGGTCTCCAGGACAGTGAAGAGGTTGGA
PBM binding z-score: 0.216
--
PRIMARY SEQUENCE: TTACCAAGGTGAACTGAGGTCGTTGATCCAACTC
PBM binding z-score: 2.43
--
PRIMARY SEQUENCE: TAGCCTAGGTTATGCGGGCCAGTATAGTGTCGGC
PBM binding z-score: 0.558
--
PRIMARY SEQUENCE: CTATGTAGGTTAAGGGGGTCATTCGGTTTGAAAG
PBM binding z-score: 3.54
--
PRIMARY SEQUENCE: CGAACTAGGTCACCAGGACAGTTAAGAGGTTGGA
PBM binding z-score: 4.2
--
PRIMARY SEQUENCE: AGTCAAAATTCACTAGGTAACGTAAGATTCAGCT
PBM binding z-score: 0.258
--
PRIMARY SEQUENCE: CCTTACAGGTCAAGGTTATAGCACGGGTGGTACG
PBM binding z-score: 4.65
--
PRIMARY SEQUENCE: CAAACTAGGTCAAAGGTCAAAGTTGAGCCAACCA
PBM binding z-score: 5.96
--
PRIMARY SEQUENCE: CTATGTAGGTTAAGGGGGTCATGCAGTTTGAAAG
PBM binding z-score: 3.79
--
PRIMARY SEQUENCE: ATATGTAGGCTAGGGTCATTCAGAAAGTAGGGAA
PBM binding z-score: 3
--
PRIMARY SEQUENCE: CGAACTAGGTCATCGAGGACAGTGAATACATTGA
PBM binding z-score: 4
--
PRIMARY SEQUENCE: CGAACTAGGTCAACGGACAGTGAAAGGCGACGTA
PBM binding z-score: 3.89
--
PRIMARY SEQUENCE: CCTGCTAGTTCATGGTCAGCTAATCTACAGTATG
PBM binding z-score: 1.55
--
PRIMARY SEQUENCE: CAAACTAGGTCAAGGTCAAATTCGGTTTGTGCCA
PBM binding z-score: 5.09
--
PRIMARY SEQUENCE: ACTAGCAGGCCAAGGGTGACTCAAGATTAGTCCG
PBM binding z-score: 0.8
--
PRIMARY SEQUENCE: CGAACTAGGTCCTTGACAGGACAGTGAATAGTAA
PBM binding z-score: -0.0437
--
PRIMARY SEQUENCE: CCTTACAGGTCACGAGGTTATAGCACGACGAGCG
PBM binding z-score: 5.31
--
PRIMARY SEQUENCE: CCGAGTAGGTTACGAGGTGGCATTCAGTGCGAAT
PBM binding z-score: 1.03
--
PRIMARY SEQUENCE: GCTCGGAGGACAAGGTCAGGGCTTTGTCCGTAGA
PBM binding z-score: 3.83
--
PRIMARY SEQUENCE: CGAACTTGGTCAAAGGACAGTGAAAGGCGACGTA
PBM binding z-score: 1.83
--
PRIMARY SEQUENCE: CCTGCTAGGTCATGGTCAGGTAATCTACAGTATG
PBM binding z-score: 4.04
--
PRIMARY SEQUENCE: CAAAGTAGGTCACGAAAGGTCAAAGTCGAATGAC
PBM binding z-score: 5.68
--
PRIMARY SEQUENCE: CTATGTAGGTTAAGGGGCTCATTCAGTTTGAAAG
PBM binding z-score: 0.689
--
PRIMARY SEQUENCE: CGAACTAGGTCAAAGGACAGTTAAAGGCGACGTA
PBM binding z-score: 4
--
PRIMARY SEQUENCE: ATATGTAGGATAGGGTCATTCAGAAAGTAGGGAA
PBM binding z-score: 2.69
--
PRIMARY SEQUENCE: CCGAGCAGGTTACGAGGGGGCATTCAGTGCGAAT
PBM binding z-score: 2.22
--
PRIMARY SEQUENCE: ATCGAAAGGTCGTCGAGGTGAGTATACACCGTTT
PBM binding z-score: 3.89
--
PRIMARY SEQUENCE: ACTAGTTGGTCAGCTGAGGTCACACAAAATTCGG
PBM binding z-score: 3.87
--
PRIMARY SEQUENCE: GCTGCTAGGTCAACTGATGGTCAGCTAAAGCTCG
PBM binding z-score: 4.26
--
PRIMARY SEQUENCE: CGAACTAGGTCACGAGGACAGTGAAGAGGTTGGA
PBM binding z-score: 4.39
--
PRIMARY SEQUENCE: CCGAGTAGGTTGCGAGGGGGCATTCAGTGCGAAT
PBM binding z-score: 1.57
--
PRIMARY SEQUENCE: CGAACTACGTCAAAGGACAGTGAAAGGCGACGTA
PBM binding z-score: 1.14
--
PRIMARY SEQUENCE: CTAACTAGGTCACAGAGGTCAAAGTCCGTGCGTA
PBM binding z-score: 5.32
--
PRIMARY SEQUENCE: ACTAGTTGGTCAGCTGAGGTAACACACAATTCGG
PBM binding z-score: 1.03
--
PRIMARY SEQUENCE: CGAACTAGGCCAAAGGACAGTGAAAGGCGACGTA
PBM binding z-score: 1.33
--
PRIMARY SEQUENCE: CTATGTAGGTTAAGGGGATCATTCAGTTTGAAAG
PBM binding z-score: 1.05
--
PRIMARY SEQUENCE: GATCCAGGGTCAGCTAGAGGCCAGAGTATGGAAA
PBM binding z-score: 4.24
--
PRIMARY SEQUENCE: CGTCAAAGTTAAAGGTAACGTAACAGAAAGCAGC
PBM binding z-score: 1.02
--
PRIMARY SEQUENCE: TCGAGTAGGTTACGGGCGCATTCAGGGATGAAGA
PBM binding z-score: 0.68
--
PRIMARY SEQUENCE: CAAACTAGGTCAAGGTCAAAGTAGGTTTGTGCCA
PBM binding z-score: 5.31
--
PRIMARY SEQUENCE: CCTACTGGGCCACGAAAGGTGATTGATTCAGTGA
PBM binding z-score: 0.929
--
PRIMARY SEQUENCE: CCGAGTAGGTCACGAGGGGGCATTCAGTGCGAAT
PBM binding z-score: 4.58
--
PRIMARY SEQUENCE: ACATGTAGGTTAGGGTCATTCAGAAAGTAGGGAA
PBM binding z-score: 3.61
--
PRIMARY SEQUENCE: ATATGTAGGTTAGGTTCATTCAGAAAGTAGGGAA
PBM binding z-score: 1.5
--
PRIMARY SEQUENCE: TCGAGTAGGTTACGGGGGCATTCGGGGATGAAGA
PBM binding z-score: 2.54
--
PRIMARY SEQUENCE: CCTAGTTGGTCAGGAGGTCACAAACCGGATATGA
PBM binding z-score: 3.37
--
PRIMARY SEQUENCE: CGCACTAGGTCAAAGGACAGTGAAAGGCGACGTA
PBM binding z-score: 3.84
--
PRIMARY SEQUENCE: CCGAGTAGGATACGAGGGGGCATTCAGTGCGAAT
PBM binding z-score: 0.887
--
PRIMARY SEQUENCE: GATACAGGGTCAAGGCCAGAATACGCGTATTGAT
PBM binding z-score: 4.6
--
PRIMARY SEQUENCE: ATATTTAGGTTAGGGTCATTCAGAAAGTAGGGAA
PBM binding z-score: 3.73
--
PRIMARY SEQUENCE: GCTTACGGGTCAAAAGTTATAGCATGAATAGAAT
PBM binding z-score: 3.16
